- Assay explanation: Solubility measurement of Compound 1 di-HCl in various solvents
- Type: physicochemical
- Test context: 25 °C, organic solvent or mixture, thermodynamic from solid; solvent Acetone; 25±1° C., agitated 36 h
Counter-ions that a name gives are not always drawn.
Observed property: solubility at 36 h (µg/mL)

{"columns": ["Compound", "Result number"],
 "data": [
  ["N#CCC1(N2CCC(N[C@@H]3C[C@H]3c3ccccc3)CC2)CN(S(N)(=O)=O)C1 [Compound 1 di-HCl, dihydrochloride]", 3490]
]}

====

- Assay explanation: Solubility measurement of Compound 1 di-HCl in various solvents
- Assay type: physicochemical
- Test context: 50 °C, organic solvent or mixture, thermodynamic from solid; solvent Ethyl formate; 50±1° C., agitated 24 h
Counter-ions that a name gives are not always drawn.

{"columns": ["Compound", "Value unit", "solubility at 24 h"],
 "data": [
  ["N#CCC1(N2CCC(N[C@@H]3C[C@H]3c3ccccc3)CC2)CN(S(N)(=O)=O)C1 [Compound 1 di-HCl, dihydrochloride]", "mg/mL", 0.05]
]}

====

- Assay explanation: Solubility measurement of Compound 1 di-HCl in various solvents
- Format: physicochemical
- Test context: 50 °C, organic solvent or mixture, thermodynamic from solid; solvent THF; 50±1° C., agitated 24 h
Structures can show the parent of a compound that is named as a salt.

{"columns": ["Compound", "solubility at 24 h"],
 "data": [
  ["N#CCC1(N2CCC(N[C@@H]3C[C@H]3c3ccccc3)CC2)CN(S(N)(=O)=O)C1 [Compound 1 di-HCl, dihydrochloride]", "90 µg/mL"]
]}

====

- Assay explanation: Solubility measurement of Compound 1 di-HCl in various solvents
- Assay type: physicochemical
- Test context: 50 °C, organic solvent or mixture, thermodynamic from solid; solvent Methanol; 50±1° C., agitated 24 h
Where a name gives a salt, the structure may show the parent alone.

{"columns": ["Compound", "solubility at 24 h"],
 "data": [
  ["N#CCC1(N2CCC(N[C@@H]3C[C@H]3c3ccccc3)CC2)CN(S(N)(=O)=O)C1 [Compound 1 di-HCl, dihydrochloride]", "> 50 mg/mL"]
]}

====

- Assay explanation: Solubility measurement of Compound 1 di-HCl in various solvents
- Assay type: physicochemical
- Test context: MeOH/water/ACN (5 v/2 v/3 v), 50 °C, organic solvent or mixture, thermodynamic from solid; solvent Me0H/water/ACN (5 v/2 v/3 v); 50±1° C.; by vision; read-out: Solubility at 50° C.
Where a name gives a salt, the structure may show the parent alone.

{"columns": ["Molecule", "solubility"],
 "data": [
  ["N#CCC1(N2CCC(N[C@@H]3C[C@H]3c3ccccc3)CC2)CN(S(N)(=O)=O)C1 [Compound 1 di-HCl, dihydrochloride]", "> 50 mg/mL"]
]}

====

- Assay explanation: Solubility measurement of Compound 1 di-HCl in various solvents
- Type: physicochemical
- Test context: 25 °C, organic solvent or mixture, thermodynamic from solid; solvent MEK; 25±1° C., agitated 36 h
Where a name gives a salt, the structure may show the parent alone.

{"columns": ["Molecule", "solubility at 36 h [µg/mL]"],
 "data": [
  ["N#CCC1(N2CCC(N[C@@H]3C[C@H]3c3ccccc3)CC2)CN(S(N)(=O)=O)C1 [Compound 1 di-HCl, dihydrochloride]", 160]
]}

====

- Assay explanation: Solubility measurement of Compound 1 di-HCl in various solvents
- Type: physicochemical
- Test context: 25 °C, organic solvent or mixture, thermodynamic from solid; solvent IPA; 25±1° C., agitated 36 h
Structures can show the parent of a compound that is named as a salt.

{"columns": ["Compound", "solubility at 36 h [µg/mL]"],
 "data": [
  ["N#CCC1(N2CCC(N[C@@H]3C[C@H]3c3ccccc3)CC2)CN(S(N)(=O)=O)C1 [Compound 1 di-HCl, dihydrochloride]", 1310]
]}

====

- Assay explanation: Solubility measurement of Compound 1 di-HCl in various solvents
- Type: physicochemical
- Test context: 50 °C, organic solvent or mixture, thermodynamic from solid; solvent 1-Propanol; 50±1° C., agitated 24 h
Counter-ions that a name gives are not always drawn.

{"columns": ["Compound", "solubility at 24 h [µg/mL]"],
 "data": [
  ["N#CCC1(N2CCC(N[C@@H]3C[C@H]3c3ccccc3)CC2)CN(S(N)(=O)=O)C1 [Compound 1 di-HCl, dihydrochloride]", 5210]
]}

====

- Assay explanation: Solubility measurement of Compound 1 di-HCl in various solvents
- Format: physicochemical
- Test context: 50 °C, organic solvent or mixture, thermodynamic from solid; solvent Dichloromethane; 50±1° C., agitated 24 h
Structures can show the parent of a compound that is named as a salt.
Observed property: solubility at 24 h

{"columns": ["Compound", "Result"],
 "data": [
  ["N#CCC1(N2CCC(N[C@@H]3C[C@H]3c3ccccc3)CC2)CN(S(N)(=O)=O)C1 [Compound 1 di-HCl, dihydrochloride]", "60 µg/mL"]
]}

====

- Target entity: LSD-1 enzyme (LSD1/KDM1A) (Homo sapiens, UniProt O60341)
- Construct: purchased ENZO BML-SE544-0050
- Assay explanation: LANCE LSD1/KDM1A histone demethylase biochemical assay
- Test context: 1 nM LSD-1 enzyme, 1 hour preincubation at 25° C., Biotin-labeled Histone H3 peptide substrate

{"columns": ["Smiles code", "IC50"],
 "data": [
  ["N#CCC1(N2CCC(N[C@@H]3C[C@H]3c3ccccc3)CC2)CN(S(N)(=O)=O)C1", "≤ 100 nM"]
]}

====

- Assay explanation: Solubility measurement of Compound 1 di-HCl in various solvents
- Type: physicochemical
- Test context: 50 °C, organic solvent or mixture, thermodynamic from solid; solvent MeOH/Water/ACN (6.0/0.5/1.0); 50±1° C.; by vision; read-out: Solubility at 50° C.
Where a name gives a salt, the structure may show the parent alone.
Observed property: solubility

{"columns": ["Molecule", "Result"],
 "data": [
  ["N#CCC1(N2CCC(N[C@@H]3C[C@H]3c3ccccc3)CC2)CN(S(N)(=O)=O)C1 [Compound 1 di-HCl, dihydrochloride]", "> 50 mg/mL"]
]}

====

- Assay explanation: Solubility measurement of Compound 1 di-HCl in various solvents
- Format: physicochemical
- Test context: 50 °C, organic solvent or mixture, thermodynamic from solid; solvent 5% Water in ACN; 50±1° C., agitated 24 h
Where a name gives a salt, the structure may show the parent alone.
Observed property: solubility at 24 h (mg/mL)

{"columns": ["Molecule", "Value unit", "Result number"],
 "data": [
  ["N#CCC1(N2CCC(N[C@@H]3C[C@H]3c3ccccc3)CC2)CN(S(N)(=O)=O)C1 [Compound 1 di-HCl, dihydrochloride]", "mg/mL", 45.4]
]}

====

- Assay explanation: Solubility measurement of Compound 1 di-HCl in various solvents
- Format: physicochemical
- Test context: 25 °C, organic solvent or mixture, thermodynamic from solid; solvent MeOH/Water/ACN (6.0/0.5/1.0); 25±1° C.; by vision; read-out: Solubility at 25° C.
Counter-ions that a name gives are not always drawn.

{"columns": ["Molecule", "solubility"],
 "data": [
  ["N#CCC1(N2CCC(N[C@@H]3C[C@H]3c3ccccc3)CC2)CN(S(N)(=O)=O)C1 [Compound 1 di-HCl, dihydrochloride]", "> 50 mg/mL"]
]}

====

- Assay explanation: Solubility measurement of Compound 1 di-HCl in various solvents
- Format: physicochemical
- Test context: 25 °C, organic solvent or mixture, thermodynamic from solid; solvent ACN:Water (4:1); 25±1° C.; by vision; read-out: Solubility at 25° C.
Structures can show the parent of a compound that is named as a salt.

{"columns": ["Molecule", "solubility"],
 "data": [
  ["N#CCC1(N2CCC(N[C@@H]3C[C@H]3c3ccccc3)CC2)CN(S(N)(=O)=O)C1 [Compound 1 di-HCl, dihydrochloride]", "> 50 mg/mL"]
]}

====

- Assay explanation: Solubility measurement of Compound 1 di-HCl in various solvents
- Type: physicochemical
- Test context: 25 °C, organic solvent or mixture, thermodynamic from solid; solvent EtOH; 25±1° C., agitated 36 h
Counter-ions that a name gives are not always drawn.

{"columns": ["Compound", "Value unit", "solubility at 36 h"],
 "data": [
  ["N#CCC1(N2CCC(N[C@@H]3C[C@H]3c3ccccc3)CC2)CN(S(N)(=O)=O)C1 [Compound 1 di-HCl, dihydrochloride]", "µg/mL", 3370]
]}
